Experiment: Intranasal naltrexone formulation experiments (solubility, crystallization, discoloration, osmolality)
Format: physicochemical
Settings: thermodynamic from solid; ambient temperature; read-out: solubility limit in solution
quantity-measured: solubility

Task: Please list solubility recorded for the compound O=C1CC[C@@]2(O)[C@H]3Cc4ccc(O)c5c4[C@@]2(CCN3CC2CC2)[C@H]1O5 [naltrexone]
Result: ~40 mg/mL
